B1: LINE1-mini (parent)
chain: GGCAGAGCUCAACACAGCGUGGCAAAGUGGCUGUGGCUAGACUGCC

- Variants of: B1
- assay_info: self-cleavage, relative activity (ratio to wild type); higher = more cleavage; in vitro, sequencing; the parent is a self-cleaving ribozyme
observed_property: self-cleavage
Lab note: record just the number, no unit beside it.

Endpoint output: self-cleavage of G5A C42U . Value? 1.53

Can you share its self-cleavage? I mean this variant: A12G G44A 0.04

// returns reported self-cleavage for input A26G U38C 0.44

Which self-cleavage value belongs to C8A U38C ? 0.2

Data request, read-out self-cleavage, for C10A A41U 0.02

Suppose we examine the variant A25G G29A ; what self-cleavage value has been reported? 0.32

Can you share its self-cleavage? I mean this variant: A26C U28C 0.4

May I ask what self-cleavage has been recorded for G1A U9G ? 0.22

Look up self-cleavage for this variant: G29U C46A 0.82

Requested read-out: self-cleavage. Entry: C10G G22C 0.12

Record request: self-cleavage value, item U9A A39U 0.1

Give the measured self-cleavage of G2A C23U . 2.33

What self-cleavage value was documented for this variant, C3G A16G ? 0.23

# lookup: self-cleavage of G7U G33U 0.13

Fill blank: measured self-cleavage of the variant G7U C18A is ____. 0.08

Can you share its self-cleavage? I mean this variant: U28C A39G 0.09

What does the data say about its self-cleavage? Entry: U38C G40C 0.06

Item C8G G22U has what recorded self-cleavage? 0.09

Item under review: G36U C45U . Reported self-cleavage? 0.11

Any idea what self-cleavage was measured for U20G A26C ? 0.47

self-cleavage for C3U A41G ? 0.12

Given C15U A25G , state its recorded self-cleavage. 0.17

Quick one: self-cleavage of U28G C42A ? 0.18

Can you share its self-cleavage? I mean this variant: C10G U32G 0.02

Consider the variant A16U C18A and give its measured self-cleavage. 0.05

Given the variant A14U A16C , what is its reported self-cleavage? 0.1

May I ask what self-cleavage has been recorded for G7A G22A ? 0.14

Field request: self-cleavage | item: A14C C15U 0.07

Quick one: self-cleavage of A12C C37A ? 0.02

Which self-cleavage value belongs to C31G G35C ? 0.05

For the variant shown here, A4U A12U , give the reported self-cleavage. 0.12

# get_value(readout='self-cleavage', item= C15A G44C ) 0.04

Give the measured self-cleavage of A24G A41C . 0.04

What value of measured self-cleavage is listed for G1A C45A ? 0.82

Recorded self-cleavage for A26C U32G , please? 0.13

# query: self-cleavage of entry A4G 0.5

Query: self-cleavage; subject: G5A G36C 0.05

I am curious: what self-cleavage value has been reported for G36U U38A ? 0.05

Param item = A11C A39U ; retrieve measured self-cleavage. 0.03

Dear colleague, I am looking for the recorded self-cleavage of the following variant: A4C 0.19

# lookup: self-cleavage of A11U G33C 0.02

Query (variant): C8A A14G ; field requested: self-cleavage 0.56

Form field: reported self-cleavage of C23A G36U 0.06

If you can, please state the reported self-cleavage value of G7A A11U . 0.03

Please give the measured self-cleavage for this variant: G2A A12G 0.14

Using the record for U9A U43G , report its self-cleavage. 0.28

Could you share which self-cleavage value was measured for A25G U32A ? 0.11

Param item = C18A C45U ; retrieve measured self-cleavage. 0.58

For the variant shown here, G21A G27U , give the reported self-cleavage. 1.35

# self-cleavage lookup, item A25U C46A 1.01

// self-cleavage lookup, key: C10A A11G 0.03

Returns the measured self-cleavage for the input variant. Input: C31U U43A 0.06

Please look up its self-cleavage: A16G G44C 0.19

Could you share which self-cleavage value was measured for C3G A16C ? 0.12

Query: self-cleavage; subject: U28C C37G 0.01

// returns reported self-cleavage for input G40A A41G 0.08

Reported self-cleavage for C10U C13G : what is it? 0.09

Which measured self-cleavage value corresponds to G7C A14U ? 0.15

Look up self-cleavage: A4G U32A 0.06

Please give the measured self-cleavage for this variant: G19U C31G 0.05

Look up self-cleavage for this variant: A16U C37U 0.06

Given the variant C8U U32C , what is its reported self-cleavage? 0.12

// returns reported self-cleavage for input G29U G44A 0.41

What value of measured self-cleavage is listed for G5C C8U ? 0.11

Item U20C A26U has what recorded self-cleavage? 0.68

// self-cleavage lookup, key: C8G G30C 0.1

Name the recorded self-cleavage for A12U C23G . 0.26

For the variant shown here, C42G U43G , give the reported self-cleavage. 0.06

Requested read-out: self-cleavage. Entry: C23A A26G 0.94

Using the record for G1U C23G , report its self-cleavage. 0.24

self-cleavage for G7U G19A ? 0.07

Which self-cleavage value belongs to A6C C42U ? 0.23

Recorded self-cleavage of G30C C45U , please. 0.88

Find the recorded self-cleavage belonging to G35C and report it. 0.11

// query self-cleavage value for entry A16U U32A 0.55

I'd like to know its self-cleavage. The variant in question is A4G A39G 0.22

Reported self-cleavage for G2A C31A : what is it? 0.23

Which value of self-cleavage has been reported for A4C A24G in the records? 0.14

Record request: self-cleavage value, item A39U G40U 0.14

Reported self-cleavage for U34G G35U : what is it? 0.07

Could you tell me which self-cleavage is on file for C18A A41U ? 0.34

So what does the record say about self-cleavage for G33A U43C ? 0.05

Report self-cleavage for C18A G35C please. 0.05

self-cleavage lookup needed for C23U C42G , thanks. 0.09

self-cleavage for U34C C45A ? 0.05

Can you look up the measured self-cleavage of G29U for me? 1.09

I have this variant here, C10G C15U , and I need its recorded self-cleavage. 0.09

Give the measured self-cleavage of G1A C15U . 1.02

Returns the measured self-cleavage for the input variant. Input: G22C C37U 0.02

Record request: self-cleavage value, item C3G C37A 0.29

# lookup: self-cleavage of G7A C46A 0.23
